# Test system: HepG2 human liver carcinoma cells
# assay.summary: MTT assay, cell viability of HepG2
# Assay type: cell-based
# experimental.conditions: 72 hours, read-out: IC50 against HepG-2
experimental.endpoint: pIC50
As a rule, pIC50 stands for the negative log10 of the concentration, concentration in M.

Task item: Given the entry CC(C)CCC[C@@H](C)C1CC[C@H]2[C@@H]3CC=C4CC(OC(=O)NC(Cc5ccc(OP(=O)(O)O)cc5)C(=O)O)CC[C@]4(C)[C@H]3CC[C@]12C (stereo partly shown) , report its measured pIC50.
Reply: 4.46

* * *

# Tested on: A2780cis cells
# assay.summary: MTT assay, cytotoxicity against A2780cis
# Format: cell-based, human
# experimental.conditions: read-out: IC50 against A2780cis; 72 hours
Exercise: state measured pIC50 for each of the molecules provided.
As a rule, pIC50 stands for the negative log10 of the concentration, concentration in M.

Task item: Given the entry CC(C)CCC[C@@H](C)C1CC[C@H]2[C@@H]3CC=C4CC(OC(=O)NC(Cc5ccc(OP(=O)(O)O)cc5)C(=O)O)CC[C@]4(C)[C@H]3CC[C@]12C (stereo partly drawn) [2a, Cholesterol-(phospho)L-Tyr] , report its measured pIC50.
Reply: 4.66

Task item: Given the entry CC(C)CCC[C@@H](C)C1CC[C@H]2[C@@H]3CC=C4CC(OC(=O)NC(Cc5ccc(O)cc5)C(=O)O)CC[C@]4(C)[C@H]3CC[C@]12C (stereo partly drawn) [2b, Cholesterol-L-Tyr] , report its measured pIC50.
Reply: 4.44

Task item: Given the entry CC(C)CCC[C@@H](C)C1CC[C@H]2[C@@H]3CC=C4CC(OC(=O)NC(Cc5ccc(OP(=O)(O)O)cc5)C(=O)O)CC[C@]4(C)[C@H]3CC[C@]12C (stereo partly drawn) [1a, Cholesterol-(phospho)D-Tyr] , report its measured pIC50.
Reply: 5.05

* * *

# System: HeLa cells
# assay.summary: MTT assay, cytotoxicity against HeLa
# Assay type: cell-based, human
# experimental.conditions: 48 hours; read-out: IC50 against HeLa cell
experimental.endpoint: IC50 (µM)
Form entry: value (µM) — number only.

Task item: Given the entry CC(C)CCC[C@@H](C)C1CC[C@H]2[C@@H]3CC=C4CC(OC(=O)NC(Cc5ccc(OP(=O)(O)O)cc5)C(=O)O)CC[C@]4(C)[C@H]3CC[C@]12C (stereo partly drawn) [1a, Cholesterol-(phospho)D-Tyr] , report its measured IC50.
Reply: 19

* * *

# Tested on: T98G glioblastoma cells
# assay.summary: MTT assay, cell viability of T98G
# Assay type: cell-based
# experimental.conditions: Homo sapiens, 48 hours, read-out: IC50 against T98G
experimental.endpoint: pIC50
As a rule, pIC50 stands for the negative log10 of the concentration, concentration in M.

Task item: Given the entry CC(C)CCC[C@@H](C)C1CC[C@H]2[C@@H]3CC=C4CC(OC(=O)NC(Cc5ccc(OP(=O)(O)O)cc5)C(=O)O)CC[C@]4(C)[C@H]3CC[C@]12C (stereo partly shown) , report its measured pIC50.
Reply: 4.32

* * *

Exercise: state measured IC50 for each of the molecules provided.
# System: HeLa cells
# assay.summary: MTT assay, cytotoxicity against HeLa
# Assay type: cell-based, human
# experimental.conditions: Homo sapiens, HeLa, 48 h; read-out: IC50 against HeLa cell
Form entry: value (µM) — number only.

Task item: Given the entry CC(C)CCC[C@@H](C)C1CC[C@H]2[C@@H]3CC=C4CC(OC(=O)NC(Cc5ccc(OP(=O)(O)O)cc5)C(=O)O)CC[C@]4(C)[C@H]3CC[C@]12C (some centres unmarked) , report its measured IC50.
Reply: 18.6

Task item: Given the entry CC(C)CCC[C@@H](C)C1CC[C@H]2[C@@H]3CC=C4CC(OC(=O)NC(Cc5ccc(O)cc5)C(=O)O)CC[C@]4(C)[C@H]3CC[C@]12C (some centres unmarked) , report its measured IC50.
Reply: 89.7
